The origin of these recorded values is patent US12570655B2.

Target: AKT2 (Homo sapiens)
Sequence (P31751 whole entry, the tested form may be a part): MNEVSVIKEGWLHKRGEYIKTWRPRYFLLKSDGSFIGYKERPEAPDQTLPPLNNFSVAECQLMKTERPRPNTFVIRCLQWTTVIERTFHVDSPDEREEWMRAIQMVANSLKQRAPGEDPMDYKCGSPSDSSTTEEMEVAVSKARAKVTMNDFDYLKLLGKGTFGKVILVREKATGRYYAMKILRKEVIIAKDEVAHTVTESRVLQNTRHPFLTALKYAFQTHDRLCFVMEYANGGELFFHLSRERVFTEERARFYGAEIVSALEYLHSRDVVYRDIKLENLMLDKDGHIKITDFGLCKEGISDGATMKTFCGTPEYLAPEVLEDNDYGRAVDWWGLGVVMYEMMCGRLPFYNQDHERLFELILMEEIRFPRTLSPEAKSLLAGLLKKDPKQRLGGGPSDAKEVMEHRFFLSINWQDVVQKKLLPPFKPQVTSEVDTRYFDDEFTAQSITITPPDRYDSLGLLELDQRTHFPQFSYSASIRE
Assay: Live cell AKT2 target engagement by NanoBRET competitive probe displacement
Conditions: HEK293 cells transfected with kinase-NanoLuciferase fusion, 2 h at 37° C.
Experimental: Determining Live Cell AKT1 E17K, AKT1 WT, and AKT2 Target Engagement by NanoBRET Competitive Probe Displacement. Live cell target engagement assays were performed as described (Vasta, J. D. et al. Cell Chem Biol 2018, 25(11), 206-214). […] After incubation for 2 h at 37° C., luciferase substrate and extracellular luciferase inhibitor were added to all wells, and luminescent intensity at 460 nm and 600 nm were measured on a multimode plate-reader. […]
Measured Quantity: IC50 (nM)

Example molecules with recorded IC50:
1. C=CC(=O)N1CCC(N[C@H]2CCc3cc(-n4c(-c5ccc(F)cc5)nc5ccc(-n6cccn6)nc54)ccc32)CC1
469
2. C=CC(=O)N1CC2CCC(C1)C2N[C@H]1CCc2cc(-n3c(-c4cccnc4N)nc4ccc(-n5cccn5)nc43)ccc21 (stereo partly drawn)
1420
3. C=CC(=O)N1CCN(N[C@@H]2CCc3cc(-n4c(-c5cccnc5N)nc5ccc(C6CC6)nc54)ccc32)CC1
416
4. C=CC(=O)N1CCC(N[C@H]2CCc3cc(-n4c(-c5cccnc5N)nc5ccc(-n6cccn6)nc54)ccc32)C(C)C1 (single isomer, unassigned) [Example 101]
290
5. C=CC(=O)N1CCC(N[C@H]2CCc3cc(-n4c(-c5cccnc5N)nc5ccc(-n6cccn6)nc54)ccc32)C1 (single isomer, unassigned) [Example 57]
84.6
6. C=CC(=O)N1CCC(N[C@H]2CCc3cc(-n4c(-c5cccnc5N)nc5ccc(N6CCC(F)(F)CC6)nc54)ccc32)CC1
954

1: C=CC(=O)NCCc1ccccc1C(=O)N[C@H]1CCc2cc(-n3c(-c4cccnc4N)nc4ccc(-n5cccn5)nc43)ccc21
2: Nc1ncccc1-c1nc2ccc(-n3cccn3)nc2n1-c1ccc2c(c1)CC[C@@H]2NC1CCN(C(=O)CCl)CC1
Query: Could you check which of 1 and 2 has a smaller value for IC50? // respond with label for picked entry
Result: 2
(2: 28.6 nM, 1: 55.9 nM)

I: N#CN1CCC(N[C@H]2CCc3cc(-n4c(-c5cccnc5N)nc5ccc(-n6cccn6)nc54)ccc32)CC1
II: C=CC(=O)N1CCC(N[C@@H]2c3ccc(-n4c(-c5ccccc5)nc5ccc(-n6cccn6)nc54)cc3CC2F)CC1C(F)F (single isomer, unassigned) [Example 329]
Query: IC50 comparison. Which is larger, I or II ? // respond with label for picked entry
Result: I

----------
biological target: AKT1 WT (Homo sapiens, UniProt P31749); experiment: Live cell AKT1 WT target engagement by NanoBRET competitive probe displacement; conditions: HEK293 cells transfected with kinase-NanoLuciferase fusion, 2 h at 37° C.
Sequence (P31749 whole entry, the tested form may be a part): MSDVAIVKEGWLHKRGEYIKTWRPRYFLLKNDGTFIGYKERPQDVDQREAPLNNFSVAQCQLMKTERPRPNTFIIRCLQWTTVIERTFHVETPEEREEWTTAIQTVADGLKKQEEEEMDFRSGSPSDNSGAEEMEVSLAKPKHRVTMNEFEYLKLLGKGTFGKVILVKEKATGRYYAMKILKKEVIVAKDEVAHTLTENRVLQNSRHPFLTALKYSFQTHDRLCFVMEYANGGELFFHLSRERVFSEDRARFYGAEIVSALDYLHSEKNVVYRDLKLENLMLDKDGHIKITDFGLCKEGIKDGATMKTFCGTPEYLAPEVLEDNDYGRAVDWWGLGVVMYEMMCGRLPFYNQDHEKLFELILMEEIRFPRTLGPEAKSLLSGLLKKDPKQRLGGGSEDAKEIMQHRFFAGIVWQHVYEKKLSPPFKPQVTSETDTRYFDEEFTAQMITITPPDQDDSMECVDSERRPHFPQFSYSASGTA
Measured Quantity: IC50 (nM)

1) C=CC(=O)N1CCC(N[C@H]2CCc3cc(-n4c(-c5cccnc5N)nc5ccc(-n6ccc(COC)n6)nc54)ccc32)CC1
127
2) C=CC(=O)N1CCC(N[C@H]2CCc3cc(-n4c(-c5cccnc5N)nc5ccc(C6CC6)nc54)ccc32)C(C)C1 (single isomer, unassigned) [Example 229]
756
3) C=CC(=O)N(C)CC(=O)N[C@H]1CCc2cc(-n3c(-c4cccnc4N)nc4ccc(-n5cccn5)nc43)ccc21
174
4) C=CC(=O)N1CCC(N[C@H]2CCc3cc(-n4c(-c5cccnc5N)nc5ccc(-n6cccn6)nc54)ccc32)CC12CCC2 (single isomer, unassigned) [Example 93]
5.63

a: C=CC(=O)N1CCC(N[C@H]2CCc3cc(-n4c(-c5cccnc5N)nc5ccc(N6CC[C@H](F)C6)nc54)ccc32)CC1
b: C=CC(=O)N1CCC(N[C@@H]2c3ccc(-n4c(-c5cccnc5N)nc5ccc(-n6ccc(F)n6)nc54)cc3CC2F)C[C@@H]1C (single isomer, unassigned) [Example 273]
Query: IC50 comparison. Which is larger, a or b ? // respond with label for picked entry
Result: b
(b: 157 nM, a: 105 nM)

----------
molecular target: AKT1 E17K (Homo sapiens, UniProt P31749, E17K); experiment: Live cell AKT1 E17K target engagement by NanoBRET competitive probe displacement; conditions: HEK293 cells transfected with kinase-NanoLuciferase fusion, 2 h at 37° C.
Sequence (P31749 whole entry E17K, the tested form may be a part): as the sequence (P31749 whole entry, the tested form may be a part) above, with E17K counted along it
pIC50: −log10 of the molar value.
Measured Quantity: pIC50

Example molecules with recorded pIC50:
1. N#CN1CCC(N[C@H]2CCc3cc(-n4c(-c5cccnc5N)nc5ccc(-n6cccn6)nc54)ccc32)CC1
6.14
2. C=CC(=O)N(C)Cc1ccccc1C(=O)N[C@H]1CCc2cc(-n3c(-c4cccnc4N)nc4ccc(-n5cccn5)nc43)ccc21
7.99
3. C=CC(=O)N1CCC(N[C@H]2CCc3cc(-n4c(-c5cccnc5N)nc5ccc(-n6cccn6)nc54)ccc32)C(C#N)C1 (stereo partly drawn) [Example 157]
7.26
4. C=CC(=O)N1CCC(NC2c3ccc(-n4c(-c5cccnc5N)nc5ccc(-n6ccc(C7CC7)n6)nc54)cc3CC2F)CC1C(F)F (single isomer, unassigned) [Example 336]
7.79

P: C=CC(=O)N1CCC(N[C@H]2CCc3cc(-n4c(-c5cccnc5N)nc5ccc(-n6cccn6)nc54)ccc32)C(O)C1 (single isomer, unassigned) [Example 139]
Q: C=CC(=O)N1CCC(N[C@H]2CCc3cc(-n4c(-c5cccnc5N)nc5ccc(-n6ccc(C(C)C)n6)nc54)ccc32)CC1
Query: pIC50 comparison. Which is larger, P or Q ? // respond with label for picked entry
Result: Q

----------
target: AKT2 (Homo sapiens); assay: Live cell AKT2 target engagement by NanoBRET competitive probe displacement; conditions: HEK293 cells transfected with kinase-NanoLuciferase fusion, 2 h at 37° C.
Measured Quantity: IC50 (nM)

Example compounds with recorded IC50:
1. C=C(F)C(=O)Nc1cn(C)nc1C(=O)N[C@H]1CCc2cc(-n3c(-c4cccnc4N)nc4ccc(-n5cccn5)nc43)ccc21
982
2. C=CC(=O)N1CCCC(N[C@H]2CCc3cc(-n4c(-c5cccnc5N)nc5ccc(-n6cccn6)nc54)ccc32)C1 (single isomer, unassigned) [Example 125]
3280
3. C=CC(=O)N1CCC(N[C@H]2CCc3cc(-n4c(-c5cccnc5N)nc5ccc(C6CC(F)(F)C6)nc54)ccc32)CC1
283

P: C=CC(=O)N1CCC(N[C@H]2CCc3cc(-n4c(-c5cccnc5N)nc5ccc(-n6cccn6)nc54)ccc32)C(OC)C1 (single isomer, unassigned) [Example 118]
Q: C=CC(=O)N1CCC(N[C@H]2CCc3cc(-n4c(-c5ccccc5)nc5ccc(-n6ccc(F)n6)nc54)ccc32)CC1
Query: Could you check which of P and Q has a smaller value for IC50? // respond with label for picked entry
Result: Q
(Q: 86 nM, P: 320 nM)

A: C=CC(=O)N1[C@H](C)CC(N[C@H]2CCc3cc(-n4c(-c5cccnc5N)nc5ccc(-n6cccn6)nc54)ccc32)C[C@@H]1C (single isomer, unassigned) [Example 88]
B: C=CC(=O)N1CCC(N[C@@H]2c3ccc(-n4c(-c5cccnc5N)nc5ccc(-n6cccn6)nc54)cc3CC2C)CC1 (single isomer, unassigned)
C: C=CC(=O)N1CCc2c(C(=O)N[C@H]3CCc4cc(-n5c(-c6cccnc6N)nc6ccc(-n7cccn7)nc65)ccc43)cccc21
D: C=CC(=O)N1CC2(CCCC(N[C@H]3CCc4cc(-n5c(-c6cccnc6N)nc6ccc(-n7cccn7)nc65)ccc43)C2)C1 (single isomer, unassigned) [Example 79]
E: C=CC(=O)N1C[C@H]2CCC[C@@H](C1)C2N[C@H]1CCc2cc(-n3c(-c4cccnc4N)nc4ccc(-n5cccn5)nc43)ccc21 (single isomer, unassigned)
Query: Your job: order these 5 records by IC50, ascending. The reply should contain the labels ordered as requested.
Result: D, C, A, B, E

A: C=CC(=O)N1CC2(CCCC(N[C@H]3CCc4cc(-n5c(-c6cccnc6N)nc6ccc(-n7cccn7)nc65)ccc43)C2)C1 (single isomer, unassigned) [Example 78]
B: C=CC(=O)N1CCC(N[C@@H]2c3ccc(-n4c(-c5ccccc5)nc5ccc(-n6cccn6)nc54)cc3CC2F)CC1C(F)F (single isomer, unassigned) [Example 330]
C: C=CC(=O)N1CCOCC(N[C@H]2CCc3cc(-n4c(-c5cccnc5N)nc5ccc(-n6cccn6)nc54)ccc32)C1 (single isomer, unassigned) [Example 54]
Query: Your job: order these 3 records by IC50, ascending. The reply should contain the labels ordered as requested.
Result: B, A, C
(B: 69.3 nM, A: 136 nM, C: 292 nM)

I: C=CC(=O)N1CCC(N[C@H]2CCc3cc(-n4c(-c5cccnc5N)nc5ccc(-n6nccn6)nc54)ccc32)C[C@H]1C (single isomer, unassigned) [Example 261]
II: C=CC(=O)N1CCC(N[C@@H]2c3ccc(-n4c(-c5cccnc5N)nc5ccc(-n6ccc(F)n6)nc54)cc3CC2F)CC1 (single isomer, unassigned) [Example 236]
Query: IC50 comparison. Which is larger, I or II ? // respond with label for picked entry
Result: I

A: C=CC(=O)N1CC2COCC(C1)C2N[C@H]1CCc2cc(-n3c(-c4cccnc4N)nc4ccc(-n5cccn5)nc43)ccc21 (mixture of isomers)
B: C=CC(=O)Nc1ccccc1C(=O)N[C@H]1CCc2cc(-n3c(-c4cccnc4N)nc4ccc(-n5cccn5)nc43)ccc21
Query: IC50 comparison. Which is larger, A or B ? // respond with label for picked entry
Result: A
(A: 158 nM, B: 35 nM)

I: C=CC(=O)N1CCC12CCC(N[C@H]1CCc3cc(-n4c(-c5cccnc5N)nc5ccc(-n6cccn6)nc54)ccc31)CC2 (stereo partly shown)
II: C=CC(=O)N1CCC(N[C@H]2CCc3cc(-n4c(-c5cccnc5N)nc5ccc(C(F)(F)F)nc54)ccc32)CC1
Query: IC50 comparison. Which is larger, I or II ? // respond with label for picked entry
Result: II
(II: 362 nM, I: 166 nM)

P: C=CC(=O)N1CCC(N[C@H]2CCc3cc(-n4c(-c5cccnc5N)nc5ccc(-n6cccn6)nc54)ccc32)C(O)C1 (single isomer, unassigned) [Example 140]
Q: C=CC(=O)N1CC2CC[C@@H]1CC2N[C@H]1CCc2cc(-n3c(-c4cccnc4N)nc4ccc(-n5cccn5)nc43)ccc21 (single isomer, unassigned) [Example 131]
Query: Could you check which of P and Q has a smaller value for IC50? // respond with label for picked entry
Result: P
